# Target entity: T1, hPD-1 Avi-Tag Biotin (AcroBiosystems PD1-H82E4) (human, UniProt Q15116 25-167, biotin on Avi-Tag)
# T1 construct: bought; also called human PD-1
# T1 sequence (Q15116 25-167 limits assumed): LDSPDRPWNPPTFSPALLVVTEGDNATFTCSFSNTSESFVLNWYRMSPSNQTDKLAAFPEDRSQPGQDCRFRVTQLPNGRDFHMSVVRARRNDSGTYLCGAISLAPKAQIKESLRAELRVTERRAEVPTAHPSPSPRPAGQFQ
# Assay procedure: SPR, Ab captured, PD-1 analyte
kon: recorded values

Binder	Endpoint	Reported result
z7-XVT458 (antibody, human IgG1, kappa, V domains shown, hIgG1; numbering as for z1; also called GH + V067A + T071V + T073K) VH: QVQLVQSGAEVKKPGASVKVSCKASGYTFTNFYIHWVRQAPGQGLEWMGSIYPNYGDTAYNQKFKDRATMTVDKSTSTAYMELRSLRSDDTAVYYCARGYSYAMDYWGQGTTVTVSS VL: DIQMTQSPSSVSASVGDRVTITCSASQGISGDLNWYQQKPGKAPKLLIYHTSSLHSGVPSRFSGSGSGTDFTLTISSLQPEDFATYYCQYYSKDLLTFGGGTKLEIKR	kon	95700 M⁻¹ s⁻¹

Here's the next entry for you.
Q: // fetch kon given entry z3-XVT458 (antibody, human IgG1, kappa, V domains shown, hIgG1; numbering as for z1; also called GH + T073K) VH: QVQLVQSGAEVKKPGASVKVSCKASGYTFTNFYIHWVRQAPGQGLEWMGSIYPNYGDTAYNQKFKDRVTMTTDKSTSTAYMELRSLRSDDTAVYYCARGYSYAMDYWGQGTTVTVSS VL: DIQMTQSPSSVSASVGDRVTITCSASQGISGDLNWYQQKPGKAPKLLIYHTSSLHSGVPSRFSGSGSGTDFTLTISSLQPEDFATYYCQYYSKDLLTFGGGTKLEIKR
Result: 87400 M⁻¹ s⁻¹
